Reference source: PubChem BioAssay AID1745844

Test system: rodent lifetime carcinogenesis bioassay, tumor incidence TD50
Experiment: carcinogenic potency in animals, long-term in vivo studies, CPDB compilation (AID 1745844)
Condition context: rat; strain MRC; females; in feed; site: peripheral nervous system; lesion: one or several types; types not named; dosed 143 weeks; study length 146 weeks
Active and inactive are the calls of the source. The rule behind the calls is not given here.
Parameter: TD50

INSERT INTO results (cpd_smiles, obs_value) VALUES
  ('CC(=O)[O-].CC(=O)[O-].CCC(=O)c1ccc(F)c([C@@H]2C[C@@H]2NC(=O)Nc2ccc(C#N)cn2)c1O.[Zn+2]', '35400 mg/kg/day (inactive)');

----------
Tested on: rodent lifetime carcinogenesis bioassay, tumor incidence TD50
Experiment: carcinogenic potency in animals, long-term in vivo studies, CPDB compilation (AID 1745844)
Condition context: rat; strain F344/DuCrj; males; in drinking water; site: kidney; lesion: adenocarcinoma; dosed 39 weeks; study length 104 weeks
Parameter: TD50 (mg/kg/day)

INSERT INTO assay_data (cpd_smiles, parameter, unit_string, obs_value) VALUES
  ('[O-][Br+2]([O-])O', 'TD50', 'mg/kg/day', 16.9);
